Catalogue of self-splicing fitness (ln) readings, one per entry.
test: self-splicing fitness, log relative to wild type (ln ratio); higher = more splicing; Tetrahymena group I intron in knt gene, E. coli kanamycin selection, DiMSum; sequences stand for … in CUCUCU…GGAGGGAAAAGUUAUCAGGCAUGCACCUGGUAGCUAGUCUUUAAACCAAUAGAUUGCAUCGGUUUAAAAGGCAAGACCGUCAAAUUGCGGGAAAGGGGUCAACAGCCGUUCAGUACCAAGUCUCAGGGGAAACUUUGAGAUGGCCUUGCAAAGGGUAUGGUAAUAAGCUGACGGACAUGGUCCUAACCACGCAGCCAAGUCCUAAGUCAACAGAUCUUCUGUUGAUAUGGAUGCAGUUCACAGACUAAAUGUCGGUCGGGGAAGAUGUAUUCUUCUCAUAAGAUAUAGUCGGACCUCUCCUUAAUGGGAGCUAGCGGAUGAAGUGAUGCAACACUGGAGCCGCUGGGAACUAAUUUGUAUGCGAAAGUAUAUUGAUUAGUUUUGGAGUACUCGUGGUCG; conditions: 30 °C;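 note: selection with 25 µg/mL kanamycin versus none on LB agar overnight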
Response field accepts a number only; no unit should be typed.

# annotated cases, reported self-splicing fitness (ln) shown
UCAUAGCAAUAUUACGUUAU; -3.05
UUAUAGCAAUAUUACGAUAU; -1.97
AGUUAGCAAUAUUACGAAGU; -2.91

Read the next record carefully.
In: For the sequence shown here, AAGGAGCAAUAUUACGAAAG , give the reported self-splicing fitness (ln).
Out: -2.93
